Reported IC50 values for the following molecules.
systemUnderTest: UniProt P07949
Sequence (P07949 29-1114): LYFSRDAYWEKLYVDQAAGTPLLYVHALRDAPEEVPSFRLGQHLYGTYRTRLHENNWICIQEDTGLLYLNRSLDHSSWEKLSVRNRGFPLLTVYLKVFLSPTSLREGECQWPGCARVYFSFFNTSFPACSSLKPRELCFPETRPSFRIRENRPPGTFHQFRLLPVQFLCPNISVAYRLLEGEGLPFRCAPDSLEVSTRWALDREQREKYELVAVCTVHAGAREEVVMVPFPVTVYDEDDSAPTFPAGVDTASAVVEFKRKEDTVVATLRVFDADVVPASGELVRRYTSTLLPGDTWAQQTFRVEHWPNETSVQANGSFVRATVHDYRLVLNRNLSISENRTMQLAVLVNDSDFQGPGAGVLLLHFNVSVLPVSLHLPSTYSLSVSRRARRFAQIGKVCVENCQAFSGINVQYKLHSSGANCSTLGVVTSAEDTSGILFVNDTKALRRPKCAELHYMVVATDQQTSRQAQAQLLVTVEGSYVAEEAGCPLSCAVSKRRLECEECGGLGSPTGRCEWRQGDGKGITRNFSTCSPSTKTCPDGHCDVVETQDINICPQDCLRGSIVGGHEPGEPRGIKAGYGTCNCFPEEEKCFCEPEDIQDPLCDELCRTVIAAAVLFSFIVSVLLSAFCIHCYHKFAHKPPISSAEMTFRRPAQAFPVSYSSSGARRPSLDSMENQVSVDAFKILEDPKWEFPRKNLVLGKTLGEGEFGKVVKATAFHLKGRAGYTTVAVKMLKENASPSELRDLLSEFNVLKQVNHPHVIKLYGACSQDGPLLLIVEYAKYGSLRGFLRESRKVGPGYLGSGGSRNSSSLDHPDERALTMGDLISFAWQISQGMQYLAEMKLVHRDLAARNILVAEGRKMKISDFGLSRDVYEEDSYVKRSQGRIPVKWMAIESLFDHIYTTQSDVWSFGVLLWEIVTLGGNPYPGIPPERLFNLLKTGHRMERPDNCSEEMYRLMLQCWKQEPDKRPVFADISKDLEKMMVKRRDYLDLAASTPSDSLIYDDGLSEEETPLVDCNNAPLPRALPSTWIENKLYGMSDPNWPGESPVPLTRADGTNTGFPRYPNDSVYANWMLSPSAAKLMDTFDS
assayMethodText: biochemical;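 note: HTRF kinase activity assay on RET enzyme, 1 h reaction at 22 °C, dual-wavelength readout as percent of control, DMSO-only wells as 100%, pre-quenched reactions as 0%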
Report as a plain number; the unit nM is understood.

molecule: Nc1ncnc2c1c1c(n2[C@H]2C[C@H](CO)C2)CCC(O)c2c-1noc2C1CC1 (some centres unmarked) [Example 135]
IC50 / nM: 45

# CCCN1Cc2c(c3c(N)ncnc3n2C(C)C)-c2noc(C3CC3)c2C1=O [Example 4] with UniProt P07949: IC50 is 16

The observed IC50 for COc1ccc(-n2c3c(c4c(N)ncnc42)-c2noc(C4CC4)c2C(O)CC3)cn1 (centres unmarked) [Example 114, 2,2,2-trifluoroacetate] when tested with UniProt P07949 stands at 357
